Would you kindly list protein stability index for each of these sequences?
System: Saccharomyces cerevisiae
Assay: protein stability index of tFT-peptide fusion (C-terminal peptide) (PSI (0-1 scale)); higher = more stable (slower turnover)
Details: genetic background: wild type; temperature: 30 C
Numbers only.

QUERY SEQUENCE: PPPPRRAPPPGT
RECORDED RESULT: 0.699
--
QUERY SEQUENCE: WRGRWVWGVGEV
RECORDED RESULT: 0.628

Need protein stability index for each of these sequences.
1. KKMKEKKKRNHA
2. MTMGNWLRLKRR
3. GLSSVVWSGGLC
4. FSLPSVPCATYR

OUT:
[0.712, 0.62, 0.622, 0.678]

====

Tested on: Saccharomyces cerevisiae
Experiment: protein stability index of tFT-peptide fusion (C-terminal peptide) (PSI (0-1 scale)); higher = more stable (slower turnover)
Conditions: genetic background: wild type; temperature: 30 C
What protein stability index was measured for each of the following?
Answers are plain numbers.

Solved entries:
QUERY SEQUENCE: ARLLRFWDHIIR [SHU1 C-terminal 12 aa]
protein stability index: 0.686
--
QUERY SEQUENCE: LRRLTSPSRTQP [BAG7 C-terminal 12 aa]
protein stability index: 0.705
--
QUERY SEQUENCE: DEKTLDSIGNSL [VCX1 C-terminal 12 aa]
protein stability index: 0.696
--
QUERY SEQUENCE: NEELEKLRPPIT [SIP3 C-terminal 12 aa]
protein stability index: 0.716
--
QUERY SEQUENCE: TSDGSASDLEII [MCM10 C-terminal 12 aa]
protein stability index: 0.692

Batch request: protein stability index for each of the following sequences.
1. ALKHGEKAFNIN [NEM1 C-terminal 12 aa]
2. RKSENYLNGRQT [YNL067W-B C-terminal 12 aa]
3. NRHSYCFSNLAP [YOL085W-A C-terminal 12 aa]
4. SIKLTFGFGAVL [AHA1 C-terminal 12 aa]

OUT:
0.677
0.721
0.691
0.711

Could you report protein stability index for every entry in the following list?
1. LKHNGQRKLAST [ANT1 C-terminal 12 aa]
2. TDNTVYQKFLKY [ILV1 C-terminal 12 aa]
3. GAAVAAGVAFLF [YDR524C-B C-terminal 12 aa]

OUT:
0.701
0.692
0.717

Give protein stability index for each listed item.
1. DIISAFEEYKNA [SEC3 C-terminal 12 aa]
2. GFQTGSASKASA [RPL37A C-terminal 12 aa]

OUT:
1. 0.685
2. 0.712

IN: Give protein stability index (Saccharomyces cerevisiae) of the following sequence: LSIGQKLTTPLC [SYC1 C-terminal 12 aa]
OUT: 0.656

====

Test system: Saccharomyces cerevisiae
Assay: protein stability index of tFT-peptide fusion (C-terminal peptide) (PSI (0-1 scale)); higher = more stable (slower turnover)
Details: genetic background: wild type; temperature: 30 C
Assign protein stability index to each entry below.
Give bare numbers.

Would you please look over these solved cases?
QUERY SEQUENCE: PALPTPILSSPP
EXPERIMENTAL TARGET: Saccharomyces cerevisiae
protein stability index: 0.709
//
QUERY SEQUENCE: MCGENVSWSCRS
EXPERIMENTAL TARGET: Saccharomyces cerevisiae
protein stability index: 0.685
//
QUERY SEQUENCE: SIRLGGSVVELV
EXPERIMENTAL TARGET: Saccharomyces cerevisiae
protein stability index: 0.694
//
QUERY SEQUENCE: GWGGGAAQKCGQ
EXPERIMENTAL TARGET: Saccharomyces cerevisiae
protein stability index: 0.7
//
QUERY SEQUENCE: RVVDEPRDFQVR
EXPERIMENTAL TARGET: Saccharomyces cerevisiae
protein stability index: 0.689
//
QUERY SEQUENCE: GFWWGCGGFCFC
EXPERIMENTAL TARGET: Saccharomyces cerevisiae
protein stability index: 0.685

Now for the sequence whose protein stability index we want.
IN: Entry `SPPLPPLPLLQL` has what protein stability index?
OUT: 0.696
